B1: ALDH8A1 (parent)
chain: RVAKKLQSGLVWTNCWLIRELNLP

# Variants of: B1
# test summary: protein stability index of a GFP-peptide fusion (GPS, HEK-293T) (PSI 1-6); higher = more stable;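 also: lentivirally expressed fusions sorted by FACS into six bins by GFP to DsRed ratio, PSI derived from sequencing read proportions per bin multiplied by bin number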
# experimental parameters: c terminus: a fixed tail appended
// reported protein stability index per item
value type: protein stability index

> print(dat)
    changes  recorded.value
 1     L10T            2.97
 2      V2W            2.54
 3      S8H            1.63
 4      S8V            3.65
 5      R1N             3.5
 6     N14I             1.2
 7      S8E             2.9
 8     T13H            1.57
 9     W16A            2.71
10     I18H            1.89
11      K5V            4.01
12     N14F            2.33
13      A3W             2.5
14      A3I            3.48
15     N22G             2.7
16     N22T            2.17
17     E20T            3.57
18      K4H            2.45
19     L23E            2.88
20     I18S            3.62
21     V11D            2.32
22     N22Y            3.15
23      K4C            1.05
24     P24A            2.76
25     P24T            2.19
26     R19P            1.53
27      R1V            2.44
28      Q7K            2.17
29     W16L            1.85
30     W16T            2.09
31     W16K            2.08
32     W12Q            1.18
33      Q7L            4.65
34      Q7P            2.97
35     I18D            1.73
36     W12K            2.27
37     I18M            2.47
38      Q7Y            2.48
